biological target: Adenosine receptors; A1 & A3 (Homo sapiens) (UniProt P30542+P0DMS8); experiment: Selectivity for adenosine A1 receptor over adenosine A3 receptor; assay type: protein assay
assay readout: Ratio Ki

[P] OC[C@H]1O[C@@H](n2cnc3c(NC4CCCC4)nc(-n4cccn4)nc32)[C@H](O)[C@@H]1O
[Q] CCOC(=O)c1cnn(-c2nc(NC3CCCCC3)c3ncn([C@@H]4O[C@H](CO)[C@@H](O)[C@H]4O)c3n2)c1
Ratio Ki comparison. Which is larger, P or Q ? Answer by quoting the chosen item's label.
P

[A] CCOC(=O)c1cnn(-c2nc(NC34CCC(CC3)C4)c3ncn([C@@H]4O[C@H](CO)[C@@H](O)[C@H]4O)c3n2)c1
[B] NC(=O)c1cnn(-c2nc(NC3CCCC3)c3ncn([C@@H]4O[C@H](CO)[C@@H](O)[C@H]4O)c3n2)c1
Hello, I am sorting some records. Could you say if A or B has the smaller Ratio Ki value? Answer by quoting the chosen item's label.
A

====

target: Adenosine receptors; A1 & A3 (Homo sapiens) (UniProt P30542+P0DMS8); assay: Selectivity for adenosine A1 receptor over adenosine A3 receptor; type: protein assay
assay readout: Ratio Ki

[
  {
    "compound smiles": "CNC(=O)c1cnn(-c2nc(NC3CCCCC3)c3ncn([C@@H]4O[C@H](CO)[C@@H](O)[C@H]4O)c3n2)c1",
    "system name": "Adenosine receptors; A1 & A3 (Homo sapiens) (UniProt P30542+P0DMS8)",
    "Ratio Ki": 19
  }
]

[A] CCNC(=O)c1cnn(-c2nc(NC3CCCC3)c3ncn([C@@H]4O[C@H](CO)[C@@H](O)[C@H]4O)c3n2)c1
[B] CNC(=O)c1cnn(-c2nc(NC3CCCC3)c3ncn([C@@H]4O[C@H](CO)[C@@H](O)[C@H]4O)c3n2)c1
[C] OC[C@H]1O[C@@H](n2cnc3c(NC45CCC(CC4)C5)nc(-n4cccn4)nc32)[C@H](O)[C@@H]1O
Would you mind ranking these compounds by ascending Ratio Ki? Hello, could you send the labels back in the order asked? Thank you.
A, B, C

====

target: Adenosine receptor A1 (Mesocricetus auratus); assay: Displacement of [3H]CPX from adenosine A1 receptor in DDT membranes
assay readout: pKi
Hey, just a heads up that pKi is the negative log base 10 of the concentration in molar.

Tell me measured pKi for CCNc1nc(-n2cc(-c3ccc(OC)cc3)cn2)nc2c1ncn2[C@@H]1O[C@H](CO)[C@@H](O)[C@H]1O please.
5.43

====

Sequence of the target: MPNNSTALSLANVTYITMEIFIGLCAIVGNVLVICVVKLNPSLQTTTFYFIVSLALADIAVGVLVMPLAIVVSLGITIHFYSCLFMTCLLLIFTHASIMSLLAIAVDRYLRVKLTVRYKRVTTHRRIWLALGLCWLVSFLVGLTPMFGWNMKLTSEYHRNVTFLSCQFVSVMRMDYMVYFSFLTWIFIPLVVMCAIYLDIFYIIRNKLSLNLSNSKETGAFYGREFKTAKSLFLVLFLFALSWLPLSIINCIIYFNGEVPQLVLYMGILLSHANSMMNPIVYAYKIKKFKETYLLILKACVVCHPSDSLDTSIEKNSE
pKi: −log10 of the molar value.
assay readout: pKi

[a] NC(=O)c1cnn(-c2nc(NC3CCCC3)c3ncn([C@@H]4O[C@H](CO)[C@@H](O)[C@H]4O)c3n2)c1
[b] OC[C@H]1O[C@@H](n2cnc3c(NC4CCCC4)nc(-n4cccn4)nc32)[C@H](O)[C@@H]1O
pKi comparison. Which is larger, a or b ? Answer by quoting the chosen item's label.
b
(b: 6.98, a: 6.42)
